Molecular target: T1, Human NKp46 antigen for immunization, screening, and testing (Kactus, NKP-HM146) (human, UniProt O76036 22-255)
T1 construct: Bought protein; also called human NKp46 antigen protein; human NKp46 protein
T1 sequence (O76036 other isoform, or with tags, fused parts or gaps limits assumed): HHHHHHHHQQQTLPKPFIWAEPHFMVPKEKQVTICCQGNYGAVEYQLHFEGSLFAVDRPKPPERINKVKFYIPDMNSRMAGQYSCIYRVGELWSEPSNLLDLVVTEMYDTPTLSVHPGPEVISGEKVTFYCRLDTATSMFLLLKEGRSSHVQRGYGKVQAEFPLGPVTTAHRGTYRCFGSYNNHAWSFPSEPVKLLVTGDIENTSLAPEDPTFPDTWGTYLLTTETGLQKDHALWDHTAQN
Assay: SPR (Biacore 8K), antibody captured on anti-human Fc, NKp46 as analyte, 1:1 fit
endpoint: Kd (nM)
// note: answer is a bare numeric in nM

Challenge: Determine from records and report Kd for H1-PC11 humanized antibody (antibody, human IgG1, V domains shown, not shown: constant region of human IgG1) VH: EVQLVESGGGLVQPGGSLRLSCAASPYSANSFSMAWFRQAPGKGLEGVACIQAESGSTNVAPSVKGRFTISQDNSKNTLYLQMNSLRAEDTAVYYCAAFKRNVGGCELRPEHWRFWGQGTLVTVSS
Response given: 6.05

Challenge: Determine from records and report Kd for H4-PA45 humanized antibody (antibody, V domains shown, not shown: constant region of human IgG1) VH: EVQLVESGGGLVQPGGSLRLSCAASGRTFSRLPMAWFRQAPGKDREFVAAISWSGGSTYYADSMKGRFTISRDNSKNTAYLQMNSLRAEDTAVYYCAAVGDSAPYSATIVYTDARAYAYWGQGTLVTVSS
Response given: 21.9

Challenge: Determine from records and report Kd for H4-PA27 humanized antibody (antibody, human IgG1, V domains shown, not shown: constant region of human IgG1) VH: DVQLVESGGGVVQPGRSLRLSCAASGRTESWYRMGWFRQAPGKGREVVARISGDTNIKYYAGSVKGRFTISRDNSKNTLYLQMSSLRAEDTAVYYCAADRTGATWDYWGQGTLVTVSS
Response given: 23.7

Challenge: Determine from records and report Kd for H2-PA31 humanized antibody (antibody, human IgG1, V domains shown, not shown: constant region of human IgG1) VH: EVQLVESGGGLVQPGGSLRLSCAVSGRTFSRLPMGWFRQAPGKGLEFVAAISWSSSTTYYADSVKGRFTISRDNSKNTAYLQMNSLRAEDTAVYYCAAVGGSLDYSATVVYTAARAYADWGQGTLVTVSS
Response given: 10.9
